Test: soluble on expression in E. coli; label from the status in PepcDB or PDB records

Sequence Entry: GPGSMDVLVPRAASSGAVGRTPAARTFSAAPPSASSSLCVVGSADHGLKVFNLCTMRELKTLYTKTCGHTEWVTACRFLSDRRVISGGMDSKLCLWNDVTRGGPGRCVDLLGHTGSISQVEVNERHGRSIAMSSSYDRTIRVWELDGIAGGREMGCLSGHKGPVTQFSWLETEVLSGDRQGTVKLWDVETAQCHLTASSKRGQIGSLAHLVHPGVGHLALFGDQGGALTVVDARGPSSAKPLFQDVLHPGGMVTFIRAPSPTAVSAPLIVTCGADKRIIVRDARHNFAEVCAITDHDDFVYSMEVIGNILLSGAGNGRLLVHDVETGELLYELKANAAAVREMFASPSVLVAAGDDGNAKVFDFM
soluble on expression in E. coli: not soluble

Sequence Entry: PYPIDLVSVVIPVYNEEASLPELLRRTEAACLELGRAFEIVLVDDGSRDRSAELLQAAAERDGSAVVAVILNRNYGQHAAILAGFEQSRGDLVITLDADLQNPPEEIPRLVERAAQGYDVVGSIRAERQDSAWRRWPSRLVNLAVQRSTGVAMHDYGCMLRAYRRSIVEAMLACRERSTFIPILANGFARHTCEIRVAHAERAHGESKYSAMRLLNLMFDLVTCMTTTPLR
soluble on expression in E. coli: not soluble

Sequence Entry: MAHHHHHHMDSASGDGGDGAPASAERHSLKPLRWIEEVRDASQPNAVFLNVYDVRGSSTLLYSVGWGVHHVGVQVYGKEYQYGHRPIGKGIGSVKPHQSPPHTYREQFFLGQTQLSASEVEKLVVAFSDKVEWLGSNYHLVKHNCIDFARAFCEALLPPAVRVEQARRAEEAGLSQKMHMVEVEVDGMRHSVPVLIPHHVDRLARYAAHYLPKSSMQRFDRLESSFFSMSEVPQERGQPTAADPDTNRSTTPTPQPHTRTSH
soluble on expression in E. coli: not soluble

----------
Test: soluble on expression in E. coli; label from the status in PepcDB or PDB records
Property: soluble on expression in E. coli

Sequence Entry: MAKIGFIGFGSMASLIATKIIETEVATPEEIILYSNSKNEHFNQFYTKYPTAELADNEAEIFTKADHSFVCKLPLAVLPLMKDCAAVLTPDRHVVSIAAGVSTSDIIEITPGLQVSKLIPSLTTAVNVGTTLIAHAETVNQTNTSWLETTFEHFGHVMTIREENMDIASDLTSSSPGIIAAIFEQFVEAALRRSSLSDAEVFQMINFALAGTSKLLVEEDYTFSGLIQRVATKDGTTAEGVELSKAQLPNFFDELLDRTQNKYASSEKEIQAQKRELLSLEHHHHHH
Measured: soluble

Sequence Entry: GPGSMEYNARYQVSPRDQFLRKVVVVPYGVLGMQMTLQGGLVRAGSEPDESTFIVDPANLRHIFTTAVGATGASGAIYNMLGLRGPFPDEVVQAISRVCDTKFYKYGERANVIHVVDPDFREGAWSEREAAVELSRAYRNVFHEFVRGDGDVLRVPPLSSGVLSGSLYNQLPIITQSAVAMAFEQLHTFDREYLLRRDKQVELCVFMNREWDMYQNVFKNCTQPSKL
Measured: soluble

Sequence Entry: MAHHHHHHMMAHRCAFQTIASPALTQREVEFTKSAWIAGLRPDQRGAQQLREVNVDFPLLSRDVSCVRCGGTIVTAAIACELVEPFPCRPKHGIIDFSVRQPYTERDSSAKTAELKKLTAFLERLIKGGGVVDTEGLCVLPGRRVWSISVDVTVLNDEGNVTDVAVWATVAVLLHYRRPELTIRGDSVILHPTHERDPVPLSIHHTPLSFSFAITMAPGDRNKLARGRRDSQEALEVVVDPTFAEATAASSSVVVAVNAEGQVCSVSKSEGSCIHLNEVNHCMETASLLAPHILSLIRDAMAAHDKRRQEVLKRMFLWAQKRSGVTSEATEPEPAKKLKTET
Measured: not soluble

Sequence Entry: MSLWTIMIGSKNRAKVHALQEVVIRDKIIVRSEAVPSDVASQPFSDQETIQGAINRANHCLSFDGVDYGVGLEGGVVRSEYGLFLCNWGALVSQTGDQWVAGGARVPLPQEVAHELEGGKELGDIMESLTKNPDVRMTDGAIGYLTDGEISRKAMFQHVVHLLIGQARRDGHLLRTVTHEGHHHHHH
Measured: soluble

Sequence Entry: MSLAQLIFDEEKVTSVIDRIVKRTFQMDFAWDWPGGVAFYGVAEAYEATENEEYINLLKTWVDEQLEDGLPPLSINGVSIGHTLLFLHKVTGDDVYLETAAEMAEYVLHKAPRFGEGILQHTVNAAEYVFPEQAWADTLMMAGLFMLRIGRVMEREDYFEDGLRQFHGHEDVLQDPVTNLYYHAWDNKAQNHLSGIYWGRANGWAALTMAKALPLIEVTHPSFMIIDGSLRDQLSALVRLQDESGLWHTILDDPDSYLEVSASAGIASALMSSGKLYTKYVQKSLAAILDAVEEDGRVSRVSAGTAVMKNAEGYKQVPYKRIQGWGQGLALTFLADVLKTKKRLYQEGHHHHHH
Measured: soluble

Sequence Entry: MDLRRFITLKTVVEEGSFLRASQKLCCTQSTVTFHIQQLEQEFSVQLFEKIGRRMCLTREGKKLLPHIYELTRVMDTLREAAKKESDPDGELRVVSGETLLSYRMPQVLQRFRQRAPKVRLSLQSLNCYVIRDALLNDEADVGVFYRVGNDDALNRRELGEQSLVLVASPQIADVDFTEPGRHNACSFIINEPQCVFRQIFESTLRQRRITVENTIELISIESIKRCVAANIGVSYLPRFAVAKELECGELIELPFGEQSQTITAMCAHHAGKAVSPAMHTFIQCVEESFVAG
Measured: soluble

Sequence Entry: MSASVKESLQLQLLEMEMLFSMFPNQGEVKLEDVNALTNIKRYLEGTREALPPKIEFVITLQIEEPKVKIDLQVTMPHSYPYVALQLFGRSSELDRHQQLLLNKGLTSYIGTFDPGELCVCAAIQWLQDNSASYFLNRKLVYEPSTQAKPVKNTFLRMWIYSHHIYQQDLRKKILDVGKRLDVTGFCMTGKPGIICVEGFKEHCEEFWHTIRYPNWKHISCKHAESVETEGNGEDLRLFHSFEELLLEAHGDYGLRNDYHMNLGQFLEFLKKHKSEHVFQILFGIESKSSDSLEHHHHHH
Measured: soluble

Sequence Entry: MAHHHHHHMLKHPQAALLFVHNSSDLFQNDTLGVLRNKTKIQNKKKISRFKIQSSEERHTDGGLHYDLTPENVEKVLNLIRPKLQIDNGDVELVDIKNNDLYIKLLGNCVTCSSNSVTVSQVIKKTLKMYIRNEKNEEPNVIITNFDEINEENIHSCLSDLKPYFDFLSKWHTGGGTPLGVMLGGRGSYSKEKRPFKGGDPSHSISSTPPPLKRAKRSTV
Measured: not soluble

# input Please look at this sequence and report its soluble on expression in E. coli: `MGSDKIHHHHHHMKYSPASETIFVADNQERTMRVEVMEHYGLTQSIEQAGYYETAHHKQLMKDIKGAIREGRLIAVCGVVGSGKTVTLRRLQQQLLDENKIIVARSLSVDKQSVRLATLINALFYDLAQDKQVQIHKQGERRERELQELVKKGKRPVALFVDEAHDLNGNTLTGLKRLMEVVEDGGGRLSVVLAGHPKLRNDLRRPTMEEIGYRTDIFTLDGITGSQREYIQWLLKTSTGKGKPEDILTTEAVDLLAMKLRTPLQVQLHLTLAMEAGYQTGEKPITATLVESVLSRQLDDLEPTLTRHGYRLKDMVEQFDAKPAEIRALFNNQLDPARTAELRDRMLAVGLPI`
# output not soluble

# input Please look at this sequence and report its soluble on expression in E. coli: `MIRTIERIITSTGFSLQHSDNGEITGLFYHCKLSSAYQPVFEAARNNIIGQEARIRADLNGNGEIQLSPWHIFALAPDDEQLIKLDRLCRTIHALNFLDNITNKQMKLFVSVQPRLLESVKDDHGSAFEQILDIIGIRTSRIVIEIPVEANRDWRLLKRVIMNYRAHGYLISVNYSGTNNDRISELGKLYPNVIRIDARDLLRRSVLDPLIVTAHNQGADVLVGNIETSYQLTDAIHAGADLLQGNFLARYSRKADNMLTPFSWQIPDERNGYRFDNESLQENQPYRSI`
# output not soluble

# input Please look at this sequence and report its soluble on expression in E. coli: `DLVASGATLPEIQKRGYLTVAVKDNLRPLGFRDDKGNLQGLEIDLAKRLANDLLGKPDAVKFQPVANSDRLPVIVENKIDLAIANVTATESRSRIVSFSVPYYYDGAAIVTKDTSINQLEDLYRRKIAVLNNSSTIFYVKYFIPKSELIGVSSYAQAQEKIESNAVDAFAADNSLLSGWVQEYPKYHILPSQLSTEPLSVVMAKGLQYDEFRRSVNEAIARYIATGWLKESTQHWGLGNSQEKTLTTDR`
# output not soluble
